- Experimental protocol: Half life in cynomolgus monkey at 1 mg/kg, iv administered as single infusion dose
- Format: ADME, organism-based, Macaca fascicularis
- Assay conditions: in vivo
Readout type: half-life

Field request: half-life | item: COC(=O)NNc1nc(Nc2ccc(NC(C)=O)c(O)c2)nc(SCC(=O)O)n1 < 12 min
